ASSAYED_TARGET: RAC-alpha serine/threonine-protein kinase (Homo sapiens)
TEST_NAME: Inhibition of AKT1
METRIC: IC50 (nM)

O=C(N[C@H](c1ccc(Cl)c(Cl)c1)C1CNC1)c1ccc2cnccc2c1
110
O=C(N[C@@H](c1ccc(Cl)c(Cl)c1)C1CNC1)c1ccc2cnccc2c1
7
O=C(NC(c1ccc(Cl)c(Cl)c1)C1CCNCC1)c1ccc2cnc(F)cc2c1 (racemic)
20
O=C(NC(c1cnc(Cl)c(Cl)c1)C1CCNCC1)c1ccc2cnccc2c1 (racemic)
140
O=C(NC(c1ccc(Cl)c(Cl)c1)C1CCNC1)c1ccc2cnccc2c1 (mixture of isomers)
30

P. COc1cc2cnccc2cc1C(=O)NC(c1ccc(Cl)c(Cl)c1)C1CCNCC1 (racemic)
Q. O=C(NC(c1ccccc1)C1CCNCC1)c1ccc2cnccc2c1 (racemic)
Input line: // task: argmin of IC50 over [ P , Q ] Kindly give the label for the entry you pick.
Output line: P
(P: 39 nM, Q: 850 nM)

---

ASSAYED_TARGET: RAC-alpha serine/threonine-protein kinase (Homo sapiens, UniProt P31749)
Sequence (P31749 whole entry): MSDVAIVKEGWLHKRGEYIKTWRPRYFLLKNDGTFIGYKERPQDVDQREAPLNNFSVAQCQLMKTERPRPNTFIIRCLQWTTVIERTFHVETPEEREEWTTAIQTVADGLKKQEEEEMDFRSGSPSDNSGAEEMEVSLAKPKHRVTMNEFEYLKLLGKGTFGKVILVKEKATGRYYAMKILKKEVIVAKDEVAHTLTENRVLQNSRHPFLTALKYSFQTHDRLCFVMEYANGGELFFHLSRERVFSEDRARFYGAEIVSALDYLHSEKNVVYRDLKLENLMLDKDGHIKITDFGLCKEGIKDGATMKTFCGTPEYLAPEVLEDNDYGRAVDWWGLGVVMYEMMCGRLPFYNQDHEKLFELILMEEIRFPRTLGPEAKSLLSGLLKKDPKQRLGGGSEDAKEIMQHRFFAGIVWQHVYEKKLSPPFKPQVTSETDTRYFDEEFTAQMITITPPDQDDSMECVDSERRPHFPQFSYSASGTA
TEST_NAME: Inhibition of AKT1
METRIC: IC50 (nM)

The examples below pair each entry with its known result.
O=C(NC(c1ccc(Cl)c(-c2ccccc2)c1)C1CCNCC1)c1ccc2cnccc2c1 (racemic)
200
O=C(NC(c1ccc(Cl)c(Cl)c1)C1CCCNC1)c1ccc2cnccc2c1 (stereo not given)
20
N[C@H](CNc1nnc(-c2ccc3c(c2)CC(=O)N3)s1)Cc1ccc(C(F)(F)F)cc1
20

1. O=C(NC(c1ccc(Cl)c(F)c1)C1CCNCC1)c1ccc2cnccc2c1 (racemic)
2. O=C(NC(c1ccc(Cl)cc1)C1CCNCC1)c1ccc2cnccc2c1 (racemic)
Input line: # min-compare on IC50 between 1 and 2 Give the label of your selection.
Output line: 1
(1: 40 nM, 2: 190 nM)

A. COc1ccc(C(NC(=O)c2ccc3cnccc3c2)C2CCNCC2)cc1F (racemic)
B. COc1ccc(-c2cc3cnccc3cc2C(=O)NC(c2ccc(Cl)c(Cl)c2)C2CCNCC2)cc1 (racemic)
C. O=C(NC(c1ccc(Cl)c(Cl)c1)C1CCNCC1)c1ccc2[nH]c(=O)oc2c1 (racemic)
Input line: Hey, quick one: sort these by IC50, largest value first please. Put the labels in the requested order and list them out.
Output line: B, A, C

---

ASSAYED_TARGET: RAC-alpha serine/threonine-protein kinase (Homo sapiens, UniProt P31749)
TEST_NAME: Inhibition of AKT1
METRIC: IC50 (nM)

Worked cases, answers included:
N#Cc1cc(C(NC(=O)c2ccc3cnccc3c2)C2CCNCC2)ccc1Cl (racemic)
80
O=C(N[C@@H](c1ccc(Cl)c(Cl)c1)C1CCN(Cc2ccccc2)CC1)c1ccc2cnccc2c1
240

1. O=C(N[C@@H](c1ccc(Cl)c(Cl)c1)C1CCN(Cc2ccc(C(F)(F)F)cc2)CC1)c1ccc2cnccc2c1
2. O=C(NC(c1cccc(Cl)c1)C1CCNCC1)c1ccc2cnccc2c1 (racemic)
Input line: Which of the two items, 1 and 2 , has the greater recorded IC50? Mark your selection by writing its label.
Output line: 1
(1: 2300 nM, 2: 70 nM)
